Test system: HeLa Kyoto;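 also: HeLa Kyoto cells synchronized by double thymidine or nocodazole block, proteins quantified by TMT10plex mass spectrometry, three independent biological replicates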
Test: melting temperature (median over replicates), in situ; higher = more thermally stable
Conditions: cell cycle stage: mitosis
This listing pairs sequences with measured melting temperature.
Provide only the numeric value, understood in °C.

Here's what some known entries look like.
• MAVADLALIPDVDIDSDGVFKYVLIRVHSAPRSGAPAAESKEIVRGYKWAEYHADIYDKVSGDMQKQGCDCECLGGGRISHQSQDKKIHVYGYSMAYGPAQHAISTEKIKAKYPDYEVTWANDGY [PHPT1] = 53.5
• MGGFFSSIFSSLFGTREMRILILGLDGAGKTTILYRLQVGEVVTTIPTIGFNVETVTYKNLKFQVWDLGGQTSIRPYWRCYYSNTDAVIYVVDSCDRDRIGISKSELVAMLEEEELRKAILVVFANKQDMEQAMTSSEMANSLGLPALKDRKWQIFKTSATKGTGLDEAMEWLVETLKSRQ [ARL1] = 50.9

The sequence listed as MASSEQAEQPSQPSSTPGSENVLPREPLIATAVKFLQNSRVRQSPLATRRAFLKKKGLTDEEIDMAFQQSGTAADEPSSLGPATQVVPVQPPHLISQPYSPAGSRWRDYGALAIIMAGIAFGFHQLYKKYLLPLILGGREDRKQLERMEAGLSELSGSVAQTVTQLQTTLASVQELLIQQQQKIQELAHELAAAKATTSTNWILESQNINELKSEINSLKGLLLNRRQFPPSPSAPKIPSWQIPVKSPSPSSPAAVNHHSSSDISPVSNESTSSSPGKEGHSPEGSTVTYHLLGPQEEGEGVVDVKGQVRMEVQGEEEKREDKEDEEDEEDDDVSHVDEEDCLGVQREDRRGGDGQINEQVEKLRRPEGASNESERD [PEX14] shows melting temperature equal to 53.6

Noted for MGLSPSAPAVAVQASNASASPPSGCPMHEGKMKGCPVNTEPSGPTCEKKTYSVPAHQERAYEYVECPIRGTAAENKENLDPSNLMPPPNQTPAPDQPFALSTVREESSIPRADSEKKWVYPSEQMFWNAMLKKGWKWKDEDISQKDMYNIIRIHNQNNEQAWKEILKWEALHAAECPCGPSLIRFGGKAKEYSPRARIRSWMGYELPFDRHDWIINRCGTEVRYVIDYYDGGEVNKDYQFTILDVRPALDSLSAVWDRMKVAWWRWTS [HCCS] : its melting temperature reads 55.1

# melting temperature of MAVDITLLFRASVKTVKTRNKALGVAVGGGVDGSRDELFRRSPRPKGDFSSRAREVISHIGKLRDFLLEHRKDYINAYSHTMSEYGRMTDTERDQIDQDAQIFMRTCSEAIQQLRTEAHKEIHSQQVKEHRTAVLDFIEDYLKRVCKLYSEQRAIRVKRVVDKKRLSKLEPEPNTKTRESTSSEKVSQSPSKDSEENPATEERPEKILAETQPELGTWGDGKGEDELSPEEIQMFEQENQRLIGEMNSLFDEVRQIEGRVVEISRLQEIFTEKVLQQEAEIDSIHQLVVGATENIKEGNEDIREAIKNNAGFRVWILFFLVMCSFSLLFLDWYDS [STX18] = 50.8

Form field melting temperature, entry MEPTAPSLTEEDLTEVKKDALENLRVYLCEKIIAERHFDHLRAKKILSREDTEEISCRTSSRKRAGKLLDYLQENPKGLDTLVESIRREKTQNFLIQKITDEVLKLRNIKLEHLKGLKCSSCEPFPDGATNNLSRSNSDESNFSEKLRASTVMYHPEGESSTTPFFSTNSSLNLPVLEVGRTENTIFSSTTLPRPGDPGAPPLPPDLQLEEEGTCANSSEMFLPLRSRTVSRQ [BCL10] : 50.5

The recorded melting temperature for entry MCGNTMSVPLLTDAATVSGAERETAAVIFLHGLGDTGHSWADALSTIRLPHVKYICPHAPRIPVTLNMKMVMPSWFDLMGLSPDAPEDEAGIKKAAENIKALIEHEMKNGIPANRIVLGGFSQGGALSLYTALTCPHPLAGIVALSCWLPLHRAFPQAANGSAKDLAILQCHGELDPMVPVRFGALTAEKLRSVVTPARVQFKTYPGVMHSSCPQEMAAVKEFLEKLLPPV [LYPLA2] equals 53
